- assay-target: HCV NS3 protease genotype 3a (3A-1) (Hepatitis C virus genotype 3a, UniProt Q81258)
- experiment: HCV NS3 protease time-resolved fluorescence (TRF) assay, genotype 3a
- Assay type: biochemical
- assay-conditions: Ki 3a
Where a name gives a salt, the structure may show the parent alone.
# log10 of Ki per entry
observable: log10 of Ki (log10 of the value in nM)

>  <compound>
C=C[C@@H]1C[C@]1(NC(=O)[C@@H]1C[C@@H]2CN1C(=O)[C@H](C1CCCC1)NC(=O)O[C@@H]1CCC[C@H]1CC/C=C\Cc1c(nc3ccccc3c1OCC)O2)C(=O)NS(=O)(=O)C1CC1

>  <observable>
log10 of Ki

>  <data-value>
1.54

$$$$
>  <compound>
C=C[C@@H]1C[C@]1(NC(=O)[C@@H]1C[C@@H]2CN1C(=O)[C@H](C1CCCC1)NC(=O)O[C@@H]1CCC[C@H]1CC/C=C/Cc1c(nc3ccccc3c1OCCCn1cccc1)O2)C(=O)NS(=O)(=O)C1(C)CC1

>  <observable>
log10 of Ki

>  <data-value>
0.59

$$$$
>  <compound>
C=C[C@@H]1C[C@]1(NC(=O)[C@@H]1C[C@@H]2CN1C(=O)[C@H](C1CCCC1)NC(=O)O[C@@H]1CCC[C@H]1CCCCCc1c(nc3ccccc3c1OC)O2)C(=O)NS(=O)(=O)C1CC1

>  <observable>
log10 of Ki

>  <data-value>
1.11

$$$$
>  <compound>
C=C[C@@H]1C[C@]1(NC(=O)[C@@H]1C[C@@H]2CN1C(=O)[C@H](C(C)(C)C)NC(=O)O[C@@H]1C[C@H]1CCCCCc1c(nc3ccccc3c1OCCN1CC3(CCC3)C1)O2)C(=O)NS(=O)(=O)C1(C)CC1

>  <observable>
log10 of Ki

>  <data-value>
0.71

$$$$
>  <compound>
C=C[C@@H]1C[C@]1(NC(=O)[C@@H]1C[C@@H]2CN1C(=O)[C@H](C(C)(C)C)NC(=O)O[C@@H]1C[C@H]1CCCCCc1c(nc3ccccc3c1OC1CNC1)O2)C(=O)NS(=O)(=O)C1(C)CC1

>  <observable>
log10 of Ki

>  <data-value>
-0.36

$$$$
>  <compound>
CC1(S(=O)(=O)NC(=O)[C@@]23C[C@H]2/C=C\CCCCC[C@@H]2NC(=O)O[C@@H]4C[C@H]4CCC/C=C/c4c(nc5ccccc5c4OCCN4CCCCC4)O[C@@H]4C[C@@H](C(=O)N3)N(C4)C2=O)CC1

>  <observable>
log10 of Ki

>  <data-value>
0.78

$$$$
>  <compound>
C=C[C@@H]1C[C@]1(NC(=O)[C@@H]1C[C@@H]2CN1C(=O)[C@H](C1CCCC1)NC(=O)O[C@@H]1CCC[C@H]1CC/C=C/Cc1c(nc3ccccc3c1OC(=O)CC(C)C)O2)C(=O)NS(=O)(=O)C1CC1

>  <observable>
log10 of Ki

>  <data-value>
1.86

$$$$
>  <compound>
C=C[C@@H]1C[C@]1(NC(=O)[C@@H]1C[C@@H]2CN1C(=O)[C@H](C(C)(C)C)NC(=O)O[C@@H]1C[C@H]1CCCCCc1c(nc3ccccc3c1OCCCN1CCCC(F)C1)O2)C(=O)NS(=O)(=O)C1(C)CC1 (some centres unmarked)

>  <observable>
log10 of Ki

>  <data-value>
0.41

$$$$
>  <compound>
C=C[C@@H]1C[C@]1(NC(=O)[C@@H]1C[C@@H]2CN1C(=O)[C@H](C1CCCC1)NC(=O)O[C@@H]1CCC[C@H]1CC/C=C/Cc1c(nc3ccccc3c1OC(=O)NC(C)C)O2)C(=O)NS(=O)(=O)C1CC1

>  <observable>
log10 of Ki

>  <data-value>
0.45

$$$$
>  <compound>
C=C[C@@H]1C[C@]1(NC(=O)[C@@H]1C[C@@H]2CN1C(=O)[C@H](C(C)(C)C)NC(=O)O[C@]1(C)C[C@H]1CCCCCc1c(nc3ccccc3c1OCCN1CCOCC1)O2)C(=O)NS(=O)(=O)C1(C)CC1

>  <observable>
log10 of Ki

>  <data-value>
-0.02

$$$$
>  <compound>
C=C[C@@H]1C[C@]1(NC(=O)[C@@H]1C[C@@H]2CN1C(=O)[C@H](C(C)(C)C)NC(=O)O[C@@H]1C[C@H]1CCCCCc1c(nc3ccccc3c1OCCCN1CCNC(C(F)(F)F)C1)O2)C(=O)NS(=O)(=O)C1(C)CC1 (some centres unmarked)

>  <observable>
log10 of Ki

>  <data-value>
0.28

$$$$
>  <compound>
C=C[C@@H]1C[C@]1(NC(=O)[C@@H]1C[C@@H]2CN1C(=O)[C@H](C(C)(C)C)NC(=O)O[C@@H]1C[C@H]1CCCCCc1c(nc3ccccc3c1OCCCN1CC(OC)C1)O2)C(=O)NS(=O)(=O)C1(C)CC1

>  <observable>
log10 of Ki

>  <data-value>
-0.12

$$$$
>  <compound>
C=C[C@@H]1CC1(NC(=O)[C@@H]1C[C@@H]2CN1C(=O)[C@H](C(C)(C)C)NC(=O)O[C@@H]1C[C@H]1CCCCCc1c(nc3ccccc3c1OC1C3CNCC1COC3)O2)C(=O)NS(=O)(=O)C1(C)CC1 (single isomer, unassigned) [Example 258, trifluoroacetate]

>  <observable>
log10 of Ki

>  <data-value>
0.44

$$$$
>  <compound>
C=C[C@@H]1C[C@]1(NC(=O)[C@@H]1C[C@@H]2CN1C(=O)[C@H](C(C)(C)C)NC(=O)O[C@@H]1C[C@H]1CCCCCc1c(nc3ccccc3c1OCCCN1CC3(CCC3)C1)O2)C(=O)NS(=O)(=O)C1(C)CC1

>  <observable>
log10 of Ki

>  <data-value>
0.18

$$$$
>  <compound>
C=C[C@@H]1C[C@]1(NC(=O)[C@@H]1C[C@@H]2CN1C(=O)[C@H](C(C)(C)C)NC(=O)O[C@@H]1CCC[C@H]1CCCCCc1c(nc3ccccc3c1OCCCN1CCOCC1)O2)C(=O)NS(=O)(=O)C1CC1

>  <observable>
log10 of Ki

>  <data-value>
0.46

$$$$
>  <compound>
C=C[C@@H]1C[C@]1(NC(=O)[C@@H]1C[C@@H]2CN1C(=O)[C@H](C(C)(C)C)NC(=O)O[C@@H]1C[C@H]1CCCCCc1c(nc3ccccc3c1OCCNC1CC1)O2)C(=O)NS(=O)(=O)C1(C)CC1

>  <observable>
log10 of Ki

>  <data-value>
0.56

$$$$
>  <compound>
C=C[C@@H]1C[C@]1(NC(=O)[C@@H]1C[C@@H]2CN1C(=O)[C@H](C1CCCCC1)NC(=O)O[C@@H]1C[C@H]1CCCCCc1c(nc3ccccc3c1OC1CCN(CCS(C)(=O)=O)CC1)O2)C(=O)NS(=O)(=O)C1(C)CC1

>  <observable>
log10 of Ki

>  <data-value>
0.72

$$$$

###

- assay-target: HCV genotype 1b (BK) NS3 modified enzyme with a R155K mutation (Hepatitis C virus genotype 1b, UniProt P26663, R1181K)
- Construct: HCV genotype 1b (BK) NS3 modified enzyme
- experiment: HCV NS3 protease time-resolved fluorescence (TRF) assay, genotype 1b R155K
- Assay type: biochemical
- assay-conditions: Ki 1b R155K, genotype 1b (BK) NS3 R155K; single value
pKi: −log10 of the molar value.

>  <compound>
C=C[C@@H]1C[C@]1(NC(=O)[C@@H]1C[C@@H]2CN1C(=O)[C@H](C1CCCC1)NC(=O)O[C@@H]1CCC[C@H]1CC/C=C/Cc1c(nc3ccccc3c1OCCN(C)C)O2)C(=O)NS(=O)(=O)C1CC1 [Example 82]

>  <pKi>
9.74

$$$$
>  <compound>
CC1(S(=O)(=O)NC(=O)[C@@]23C[C@H]2/C=C\CCCCC[C@@H]2NC(=O)O[C@@H]4C[C@H]4CCCCCc4c(nc5ccccc5c4OCCN4CCOCC4)O[C@@H]4C[C@@H](C(=O)N3)N(C4)C2=O)CC1 [Example 301]

>  <pKi>
9.46

$$$$

###

- assay-target: HCV genotype 1b (BK) NS3 modified enzyme with a R155K mutation (Hepatitis C virus genotype 1b, UniProt P26663, R1181K)
- Construct: HCV genotype 1b (BK) NS3 modified enzyme
- experiment: HCV NS3 protease time-resolved fluorescence (TRF) assay, genotype 1b R155K
- Type: biochemical
- assay-conditions: Ki 1b R155K, genotype 1b (BK) NS3 R155K; single value
Quick list: Ki per entry.
observable: Ki (nM)

>  <compound>
C=C[C@@H]1C[C@]1(NC(=O)[C@@H]1C[C@@H]2CN1C(=O)[C@H](C1CCCC1)NC(=O)O[C@@H]1CCC[C@H]1CC/C=C/Cc1c(nc3ccccc3c1OCc1ccccc1)O2)C(=O)NS(=O)(=O)C1CC1

>  <op>
=

>  <data-value>
1.6

$$$$
>  <compound>
C=C[C@@H]1C[C@]1(NC(=O)[C@@H]1C[C@@H]2CN1C(=O)[C@H](C1CCCCC1)NC(=O)O[C@@H]1C[C@H]1CCCCCc1c(nc3c(OC)cccc3c1OCCN1CCOCC1)O2)C(=O)NS(=O)(=O)C1(C)CC1

>  <op>
=

>  <data-value>
0.41

$$$$
>  <compound>
C=C[C@@H]1C[C@]1(NC(=O)[C@@H]1C[C@@H]2CN1C(=O)[C@H](C1CCCC1)NC(=O)O[C@@H]1CCC[C@H]1CC/C=C/Cc1c(nc3ccccc3c1OC(=O)C(C)C)O2)C(=O)NS(=O)(=O)C1CC1

>  <op>
=

>  <data-value>
1.3

$$$$
>  <compound>
C=C[C@@H]1C[C@]1(NC(=O)[C@@H]1C[C@@H]2CN1C(=O)[C@H](C(C)(C)C)NC(=O)O[C@@H]1C[C@H]1CCCCCc1c(nc3ccccc3c1OCCCNC1CCCC1)O2)C(=O)NS(=O)(=O)C1(C)CC1

>  <op>
=

>  <data-value>
0.064

$$$$
>  <compound>
C=C[C@@H]1C[C@]1(NC(=O)[C@@H]1C[C@@H]2CN1C(=O)[C@H](C(C)(C)C)NC(=O)O[C@@H]1CCC[C@H]1CC/C=C/Cc1c(nc3ccccc3c1OCCCO)O2)C(=O)NS(=O)(=O)C1(C)CC1

>  <op>
<

>  <data-value>
0.016

$$$$
>  <compound>
C=C[C@@H]1C[C@]1(NC(=O)[C@@H]1C[C@@H]2CN1C(=O)[C@H](C(C)(C)C)NC(=O)O[C@@H]1C[C@H]1CCCCCc1c(nc3ccccc3c1OCCCN1CCC3(CCCC3)C1)O2)C(=O)NS(=O)(=O)C1(C)CC1

>  <op>
=

>  <data-value>
0.11

$$$$
>  <compound>
C=C[C@@H]1C[C@]1(NC(=O)[C@@H]1C[C@@H]2CN1C(=O)[C@H](C(C)(C)C)NC(=O)O[C@@H]1C[C@H]1CCCCCc1c(nc3ccccc3c1OCCc1ccncc1)O2)C(=O)NS(=O)(=O)C1(C)CC1

>  <op>
=

>  <data-value>
0.12

$$$$
>  <compound>
C=C[C@@H]1C[C@]1(NC(=O)[C@@H]1C[C@@H]2CN1C(=O)[C@H](C(C)(C)C)NC(=O)O[C@@H]1C[C@H]1CCCCCc1c(nc3ccccc3c1OC1CCN(CC)CC1)O2)C(=O)NS(=O)(=O)C1(C)CC1

>  <op>
=

>  <data-value>
0.034

$$$$
>  <compound>
C=C[C@@H]1C[C@]1(NC(=O)[C@@H]1C[C@@H]2CN1C(=O)[C@H](C(C)(C)C)NC(=O)O[C@@H]1C[C@H]1CCCCCc1c(nc3ccccc3c1OCC1CCCN(CC)C1)O2)C(=O)NS(=O)(=O)C1(C)CC1 (some centres unmarked)

>  <op>
=

>  <data-value>
0.1

$$$$
>  <compound>
C=CC1C[C@]1(NC(=O)[C@@H]1C[C@@H]2CN1C(=O)[C@H](C1CCCC1)NC(=O)O[C@@H]1CCC[C@H]1CC/C=C/Cc1c(nc3ccccc3c1OCCN1CCCC1)O2)C(=O)NS(=O)(=O)C1CC1 (some centres unmarked)

>  <op>
=

>  <data-value>
0.2

$$$$
>  <compound>
C=C[C@@H]1C[C@]1(NC(=O)[C@@H]1C[C@@H]2CN1C(=O)[C@H](C(C)(C)C)NC(=O)O[C@@H]1C[C@H]1CCCCCc1c(nc3ccccc3c1OCCCNC1CC1)O2)C(=O)NS(=O)(=O)C1(C)CC1

>  <op>
=

>  <data-value>
0.07

$$$$
>  <compound>
C=C[C@@H]1C[C@]1(NC(=O)[C@@H]1C[C@@H]2CN1C(=O)[C@H](C(C)(C)C)NC(=O)O[C@@H]1C[C@H]1CCCCCc1c(nc3ccccc3c1OCC1CN(C)C1)O2)C(=O)NS(=O)(=O)C1(C)CC1

>  <op>
=

>  <data-value>
0.061

$$$$
>  <compound>
CC1(S(=O)(=O)NC(=O)[C@@]23C[C@H]2/C=C\CCCCC[C@@H]2NC(=O)O[C@@H]4C[C@H]4CCC/C=C/c4c(nc5ccccc5c4OCCCN4CCCCC4)O[C@@H]4C[C@@H](C(=O)N3)N(C4)C2=O)CC1

>  <op>
=

>  <data-value>
0.16

$$$$
>  <compound>
C=C[C@@H]1C[C@]1(NC(=O)[C@@H]1C[C@@H]2CN1C(=O)[C@H](C(C)(C)C)NC(=O)O[C@@H]1CCC[C@H]1CCCCCc1c(nc3ccccc3c1OCCN1CCOCC1)O2)C(=O)NS(=O)(=O)N(C)C

>  <op>
=

>  <data-value>
0.78

$$$$
>  <compound>
C=C[C@@H]1C[C@]1(NC(=O)[C@@H]1C[C@@H]2CN1C(=O)[C@H](C1CCCC1)NC(=O)O[C@@]1(C)CCC[C@@H]1CCCCCc1c(nc3ccccc3c1O)O2)C(=O)NS(=O)(=O)C1CC1

>  <op>
=

>  <data-value>
1.3

$$$$
>  <compound>
C=C[C@@H]1C[C@]1(NC(=O)[C@@H]1C[C@@H]2CN1C(=O)[C@H](C(C)(C)C)NC(=O)O[C@@H]1C[C@H]1CCCCCc1c(nc3ccccc3c1OCCCN1CCNC(C(F)(F)F)C1)O2)C(=O)NS(=O)(=O)C1(C)CC1 (some centres unmarked)

>  <op>
=

>  <data-value>
0.19

$$$$
>  <compound>
C=C[C@@H]1C[C@]1(NC(=O)[C@@H]1C[C@@H]2CN1C(=O)[C@H](C1CCCC1)NC(=O)O[C@@H]1CCC[C@H]1CC/C=C/Cc1c(nc3ccccc3c1OCCC1OCCO1)O2)C(=O)NS(=O)(=O)C1(C)CC1

>  <op>
=

>  <data-value>
0.23

$$$$
